This listing pairs molecules with measured cell viability.
System: NOMO1
ASSAY_NAME: cell viability relative to DMSO control; higher = less cytotoxic
DETAILS: RPMI 5 mM glucose + 10% FBS; 48 h; 0.569 µM
READOUT_LABEL: cell viability (%)

| MOLECULE | ASSAYED_SYSTEM | NUMERIC_RESULT |
| --- | --- | --- |
| CCN(C)C(=O)Oc1cccc([C@H](C)N(C)C)c1 | NOMO1 | 108 |
| Cc1cc(O)c2c(c1)C(=O)c1cc(O)cc(O)c1C2=O | NOMO1 | 97.2 |
| C#C[C@]1(O)CC[C@H]2[C@@H]3CCc4cc(OC)ccc4[C@H]3CC[C@@]21C | NOMO1 | 117 |
| Nc1nc(OCc2ccccc2)c2nc[nH]c2n1 | NOMO1 | 133 |
| CC(C)NCC(O)c1ccc(NS(C)(=O)=O)cc1 (stereo not given) | NOMO1 | 89.4 |
| COC(=O)[C@@H](N)CCCNC(=N)N[N+](=O)[O-] | NOMO1 | 92.4 |
| NC\1=N\C(=O)N(\C=C1)[C@H]\2[C@H](O)[C@H](O)C(=C2F)\CO | NOMO1 | 93 |
| C[C@@H]1CC[C@@]2(OC1)OC1CC3C4CC=C5CC(O)CCC5(C)C4CCC3(C)C1[C@@H]2C (stereo not given in full) | NOMO1 | 93 |
| O=C(NNC(=O)c1ccc(CN[S+](=O)([O-])c2ccc(F)c(Cl)c2)cc1)c1ccccc1 | NOMO1 | 93.3 |
| N\C1=N\C2=C(N=C[N]2COC(CO)CO)C(=O)N1 | NOMO1 | 121 |
